Biological target: Acetylcholinesterase (Homo sapiens, UniProt P22303)
Sequence (P22303 whole entry): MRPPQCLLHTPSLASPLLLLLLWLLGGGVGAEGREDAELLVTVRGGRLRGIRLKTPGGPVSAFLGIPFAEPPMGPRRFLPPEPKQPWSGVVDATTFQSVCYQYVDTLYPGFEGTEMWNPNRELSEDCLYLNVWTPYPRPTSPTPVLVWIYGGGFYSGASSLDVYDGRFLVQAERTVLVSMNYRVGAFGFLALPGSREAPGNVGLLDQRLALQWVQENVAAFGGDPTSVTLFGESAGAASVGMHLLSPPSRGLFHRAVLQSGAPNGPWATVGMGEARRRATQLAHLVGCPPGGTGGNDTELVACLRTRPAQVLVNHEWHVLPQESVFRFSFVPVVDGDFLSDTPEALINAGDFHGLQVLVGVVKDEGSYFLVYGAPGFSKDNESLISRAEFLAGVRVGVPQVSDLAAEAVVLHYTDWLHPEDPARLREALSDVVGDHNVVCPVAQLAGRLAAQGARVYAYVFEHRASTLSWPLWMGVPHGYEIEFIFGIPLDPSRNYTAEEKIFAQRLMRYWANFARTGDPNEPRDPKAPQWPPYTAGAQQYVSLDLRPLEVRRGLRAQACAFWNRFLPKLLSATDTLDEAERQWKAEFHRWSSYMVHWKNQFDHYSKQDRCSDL
Recorded endpoint: IC50 (nM)
// return numeric value only (unit: nM, not printed)

Examples with their reported IC50 follow.
Smiles data: COc1ccccc1NCc1cc(=O)oc2cc3oc4ccccc4c3cc12
Target of assay: Acetylcholinesterase (Homo sapiens, UniProt P22303)
Recorded endpoint: IC50
Readout number: 190
--
Smiles data: COc1cc2oc(=O)c(OCCCCOc3cc(O)cc(N(C)C)c3)c(C)c2cc1OC
Target of assay: Acetylcholinesterase (Homo sapiens, UniProt P22303)
Recorded endpoint: IC50
Readout number: 0.236

Consider the additional compound presented here.
Prompt: State IC50 on Acetylcholinesterase (Homo sapiens, UniProt P22303). Entry: `COc1cc2c(C)c(OC)c(=O)oc2cc1OCCCCOc1cc(O)cc(N(C)C)c1`
Completion: 275

Each recorded value in this set is attributed to ChEMBL document CHEMBL1938328.
